# credit: patent US20190055314A1

- study system: T1, CD137-hisFc fusion protein (Sino Biological Cat 10041-H03H) (human, UniProt Q07011 24-186)
- T1 construct: Bought; also called recombinant human CD137 (fused with human Fc and His tag); not shown: His tag and human Fc
- assay procedure: BLI Octet, Fab
measured attribute: koff (s⁻¹)
Unit s⁻¹ implied. Number only.

binder: Fab 7081 (Fab, V domains shown, Fab from E. coli; also called VH44/VL44) VH: EVQLVESGGGLVQPGGSLRLSCAASGFSLSTGGVGVGWIRQAPGKGLEWVSYISGAGGTTYYADSVKGRFTISRDNSKNTLYLQLNSLRAEDTAVYYCAREGSDAVLGDWFAYWGQGTLVTVSS VL: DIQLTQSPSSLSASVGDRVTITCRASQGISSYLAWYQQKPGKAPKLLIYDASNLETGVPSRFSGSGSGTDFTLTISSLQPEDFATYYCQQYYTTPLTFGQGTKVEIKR
unit abbreviation: s⁻¹
koff: 0.0123
//
binder: Fab 5300 (Fab, V domains shown, Fab from E. coli; also called VH12/VL12) VH: EVQLVESGGGLVQPGGSLRLSCAASGYTFSNYWIHWVRQAPGKGLEWVSYISGDGDTTYYADSVKGRFTISRDNSKNTLYLQLNSLRAEDTAVYYCAREGSTTVAGDWFAYWGQGTLVTVSS VL: DIQLTQSPSSLSASVGDRVTITCRASQGIGSFLGWYQQKPGKAPKLLIYDASSLESGVPSRFSGSGSGTDFTLTISSLQPEDFATYYCQQYYSLVTFGQGTKVEIKR
unit abbreviation: s⁻¹
koff: 0.0091

# input binder: Fab 7080 (Fab, V domains shown, Fab from E. coli; also called VH43/VL43) VH: EVQLVESGGGLVQPGGSLRLSCAASGFSLSTGGVGVGWIRQAPGKGLEWVSYISGAGGTTYYADSVKGRFTISRDNSKNTLYLQLNSLRAEDTAVYYCAREGSDTVLGDWFAYWGQGTLVTVSS VL: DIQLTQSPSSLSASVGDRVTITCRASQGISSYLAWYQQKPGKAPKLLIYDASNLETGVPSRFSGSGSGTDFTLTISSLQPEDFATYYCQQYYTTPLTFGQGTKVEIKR ; wanted: its koff 0.00746

Would you kindly repeat that for Fab 5299 (Fab, V domains shown, Fab from E. coli; also called VH11/VL11) VH: EVQLVESGGGLVQPGGSLRLSCAASGYSISSGHYWGWIRQAPGKGLEWLALIDWYGDKYYSTSLKSRLTISRDNSKNTLYLQLNSLRAEDTAVYYCARSDYYGSHFDYWGQGTLVTVSS VL: DIQLTQSPSSLSASVGDRVTITCRASESVDFDGFSFLAWYQQKPGKAPKLLIYDASNLETGVPSRFSGSGSGTDFTLTISSLQPEDFATYYCQQYDTLPRTFGQGTKVEIKR ? 0.0076
